# target_under_test: PKC beta II (Homo sapiens)
# Sequence (P05771 1-673 isoform P05771-2): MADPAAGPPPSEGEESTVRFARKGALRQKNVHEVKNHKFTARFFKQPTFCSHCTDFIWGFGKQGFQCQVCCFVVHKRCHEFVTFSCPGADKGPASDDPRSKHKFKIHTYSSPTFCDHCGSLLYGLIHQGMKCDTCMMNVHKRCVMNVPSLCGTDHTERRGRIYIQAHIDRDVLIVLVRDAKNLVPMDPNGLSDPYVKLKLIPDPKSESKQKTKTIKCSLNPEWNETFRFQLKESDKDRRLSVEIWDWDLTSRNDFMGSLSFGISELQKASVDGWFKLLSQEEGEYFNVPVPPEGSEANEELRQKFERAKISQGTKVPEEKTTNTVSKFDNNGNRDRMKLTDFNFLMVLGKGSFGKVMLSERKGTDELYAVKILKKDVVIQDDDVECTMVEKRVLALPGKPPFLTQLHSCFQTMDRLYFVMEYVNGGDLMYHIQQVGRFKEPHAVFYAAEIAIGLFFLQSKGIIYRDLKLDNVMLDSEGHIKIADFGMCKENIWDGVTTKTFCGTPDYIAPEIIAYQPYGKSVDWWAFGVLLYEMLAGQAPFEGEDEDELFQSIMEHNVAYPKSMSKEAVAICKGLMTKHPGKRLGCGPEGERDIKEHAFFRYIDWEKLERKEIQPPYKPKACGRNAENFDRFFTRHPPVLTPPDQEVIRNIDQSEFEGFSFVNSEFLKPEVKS
# method_description: PKC Enzyme Assay, beta II
# Type: biochemical
# measurement_parameters: read-out: 50% inhibition at a concentration for the beta-2 isozyme
endpoint_label: IC50 (nM)
Numbers only, in nM.

What IC50 value was documented for this compound, CC(C)(C)OC(=O)NCC(=O)n1cc(C2=C(c3cn(CCCN=[N+]=[N-])c4ccccc34)C(=O)NC2=O)c2ccccc21 ? 31

---

# target_under_test: PKC gamma (Homo sapiens, UniProt P05129)
endpoint_label: IC50 (µM)
Numbers only, in µM.

What IC50 value was documented for this compound, CC(C)(C)OC(=O)NCC(=O)n1cc(C2=C(c3cn(CCCN=[N+]=[N-])c4ccccc34)C(=O)NC2=O)c2ccccc21 ? 19

---

# target_under_test: PKC delta (Homo sapiens, UniProt Q05655)
# Sequence (Q05655 whole entry): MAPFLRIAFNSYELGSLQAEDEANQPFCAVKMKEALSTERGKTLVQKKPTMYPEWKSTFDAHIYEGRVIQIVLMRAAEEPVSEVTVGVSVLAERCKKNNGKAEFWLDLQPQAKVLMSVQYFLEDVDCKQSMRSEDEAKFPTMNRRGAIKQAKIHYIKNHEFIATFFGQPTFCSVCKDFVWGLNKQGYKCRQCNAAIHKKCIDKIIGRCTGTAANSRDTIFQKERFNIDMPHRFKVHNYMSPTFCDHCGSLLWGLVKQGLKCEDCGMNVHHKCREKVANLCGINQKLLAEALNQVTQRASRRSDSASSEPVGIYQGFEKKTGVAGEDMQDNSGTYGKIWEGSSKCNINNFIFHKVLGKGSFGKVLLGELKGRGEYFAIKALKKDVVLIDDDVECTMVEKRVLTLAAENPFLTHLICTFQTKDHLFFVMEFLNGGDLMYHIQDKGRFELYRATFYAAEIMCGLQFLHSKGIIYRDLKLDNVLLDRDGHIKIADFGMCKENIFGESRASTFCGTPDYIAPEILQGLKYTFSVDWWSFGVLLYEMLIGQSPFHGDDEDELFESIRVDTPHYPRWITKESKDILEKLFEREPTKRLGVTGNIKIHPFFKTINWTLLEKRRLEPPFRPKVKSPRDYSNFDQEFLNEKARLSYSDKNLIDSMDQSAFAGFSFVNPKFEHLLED
# method_description: PKC Enzyme Assay, delta
# measurement_parameters: Table 1
endpoint_label: IC50 (µM)
Answers are plain numbers, in µM.

Requested read-out IC50, target or system PKC delta (Homo sapiens, UniProt Q05655), entry CC(C)(C)OC(=O)NCC(=O)n1cc(C2=C(c3cn(CCCN=[N+]=[N-])c4ccccc34)C(=O)NC2=O)c2ccccc21 4.6

---

# target_under_test: PKC beta II (Homo sapiens)
# method_description: PKC Enzyme Assay, beta II
# Format: biochemical
# measurement_parameters: Table 1; read-out: IC50 β2
endpoint_label: pIC50
One number for each entry, as −log10 of the molar value.

What pIC50 value was documented for this compound, CC(C)(C)OC(=O)N[C@@H](Cc1ccccc1)C(=O)n1cc(C2=C(c3cn(C(=O)[C@H](Cc4ccccc4)NC(=O)OC(C)(C)C)c4ccccc34)C(=O)NC2=O)c2ccccc21 ? 5.59
